Target: T1, HLA-B*44:05 (human)
T1 construct: also called peptide-receptive MHC class I molecule
Assay: UV peptide exchange, anti-b2m ELISA
// peptide exchange yield lookup, one value per entry

Recorded peptide exchange yield, per entry:
binder | reported result
AEMKFYVVI | 50 to 75%
SEASVYLFRF | 50 to 75%
REIENGNSF | 50 to 75%
LETSCGSSTAY | 10 to 20%
RENDFEPKF | 50 to 75%

Prompt: For the binder "AEVTLNNTI" , what peptide exchange yield is on record?
Response: 50 to 75%

Prompt: For the binder "AETEPERHLG" , what peptide exchange yield is on record?
Response: 20 to 50%

Prompt: For the binder "AENIKKFLY" , what peptide exchange yield is on record?
Response: 50 to 75%

Data provenance: patent US20200087363A1
